Method Notes: Viability qHTS for spleen associated tyrosine kinase inhibitor (SYKi) naive MV4-11 cells (AID 1963823); note: nearly all actives have a fitted effect of over 40% in size
Condition Label: MV4-11 AML viability, CellTiter-Glo luminescence, 72 h; series mostly up to 45 µM
Inconclusive results are not listed. Activity calls are given as the source filed them. Calls come from the whole dose curve; as a rule, active = well fitted cell-killing curve with a large enough effect; inconclusive = small, poorly fitted or top-dose-only effect, or effect the other way; inactive = no such curve, though single readings can be large or run the other way.
Pick from Yes = active, No = inactive when you respond.

Use the examples below as a reference point.
Lab log entry: `CSC[C@H]1CN(Cc2c[nH]c3c(N)ncnc23)C[C@@H]1O` — outcome as called in the assay? No

Lab log entry: `O=c1cc[nH]c(=O)[nH]1` — outcome as called in the assay? No

Lab log entry: `CC(=O)c1ccc(S(=O)(=O)NC(=O)NC2CCCCC2)cc1` — outcome as called in the assay? No

Lab log entry: `C=C1C(=O)O[C@@H]2[C@H]3C(C)=CC[C@@]34O[C@@]4(C)CC[C@@H]12` — outcome as called in the assay? Yes

Lab log entry: `C=C1C[C@]23C[C@@]1(O)CC[C@H]2[C@@]12C=C[C@H](O)[C@@](C)(C(=O)O1)[C@H]2[C@@H]3C(=O)O` — outcome as called in the assay? No

Lab log entry: `C=C(C)[C@@H]1CCC2=CC(=O)C[C@@H](C)[C@]2(C)C1` — outcome as called in the assay? No

Lab log entry: CC1C/C=C/C=C\CCCCC(O)C/C=C/C(=O)O1 (stereo unspecified) — outcome as called in the assay? No

Lab log entry: `CC(=O)Nc1ccc(C(=O)O)cc1` — outcome as called in the assay? No

Continuing:
Lab log entry: `COc1ccc(S(=O)(=O)Nc2nnc(CC(C)C)s2)cc1` — outcome as called in the assay? No

Lab log entry: `C=C1C[C@]23C[C@H]1CC[C@H]2[C@@]12CC[C@H](O)[C@@](C)(C(=O)O1)[C@H]2[C@@H]3C(=O)O` — outcome as called in the assay? No

Lab log entry: `C=CC(=O)N1CCC[C@@H](n2nc(-c3cccc(C(=O)Nc4ccc(C(C)C)c(C)c4)c3)c3c(N)ncnc32)C1` — outcome as called in the assay? Yes

Lab log entry: `CN(C)C(=O)c1cc2cnc(Nc3ccc(N4CCNCC4)cn3)nc2n1C1CCCC1` — outcome as called in the assay? Yes

Lab log entry: `NNC(=O)c1ccncc1` — outcome as called in the assay? No

* * *

Method Notes: Cellular viability qHTS for adrenocortical cancer (ACC) cell line SW-13 (AID 1963989);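 note: cells grown in serum-free medium with ITS supplement; % is set by controls: 0 for no effect and ±100 for the full control effect; nearly all actives have a fitted effect of over 65% in size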
Condition Label: SW-13 ACC cells viability, CellTiter-Glo, 48 h; active compounds read low
Inconclusive results are not listed. Where a SMILES comes first, the peptide text is derived from it. Bridges are numbered along the chain shown (N, C = ends). [ ]: non-standard residue; d: D form. The star is where a group is joined. X1 = CCC(C)C(N)C1=NC(C(=O)*)CS1; dOrn = NCCC[C@@H](N)C(=O)O
Please respond with reported activity (max response) for every item in the list.
Give bare numbers, in %.

Here's what some known entries look like.
Suppose we examine the compound `CCCN1C[C@H](CSC)C[C@@H]2c3cccc4[nH]cc(c34)C[C@H]21` ; what activity (max response) value has been reported? -4.04

Suppose we examine the compound `CN1CCN(C2=Nc3ccccc3Sc3ccc(Cl)cc32)CC1` ; what activity (max response) value has been reported? -24.6

Suppose we examine the compound CCC(C)C(N)C1=NC(C(=O)N[C@@H](CC(C)C)C(=O)N[C@H](CCC(=O)O)C(=O)N[C@H](C(=O)N[C@H]2CCCCNC(=O)[C@H](CC(N)=O)NC(=O)[C@@H](CC(=O)O)NC(=O)[C@H](Cc3cnc[nH]3)NC(=O)[C@@H](Cc3ccccc3)NC(=O)[C@H]([C@@H](C)CC)NC(=O)[C@@H](CCCN)NC2=O)[C@@H](C)CC)CS1 (stereo partly drawn) (X1-L[dE]IK[dOrn]I[dF]H[dD]N; lactam 4-C) ; what activity (max response) value has been reported? -8.42

Give activity (max response) for all compounds that follow.
1. CCc1cc2c(c(OCC(F)(F)F)c(C(=O)NC3CCN(C(=O)CO)CC3)n2C)c(=O)n1CC(=O)c1ccccc1
2. O=C1CC2(CCCC2)CC(=O)N1CCCCN1CCN(c2ncccn2)CC1
3. Nc1cccc2c1CN(C1CCC(=O)NC1=O)C2=O (stereo not drawn)
4. CC[N+](C)(CC)CCOC(=O)C(O)(c1ccccc1)C1CCCCC1 (stereo not drawn)

1. -16.3
2. -4.13
3. -7.43
4. 7.72

Suppose we examine the compound `CCCCCCCCCCCCSCCOCCO` ; what activity (max response) value has been reported? -3.34

* * *

Method Notes: Quantitative highthroughput screen to assess conditional lethalithy of NOMO1 cells grown in Human Plasma-Like Medium with dialyzed fetal bovine serum (HPLM+ds) (AID 1963878); note: nearly all actives have a fitted effect of over 35% in size;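 for viability: 100% = DMSO wells and 0% = empty wells on each plate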
Condition Label: NOMO1 AML cells in HPLM+ds, CellTiter-Glo viability, 48 h; series mostly up to 45.8 µM
Records with an inconclusive call do not appear. Active and inactive are the calls of the source. Calls come from the whole dose curve; as a rule, active = well fitted cell-killing curve with a large enough effect; inconclusive = small, poorly fitted or top-dose-only effect, or effect the other way; inactive = no such curve, though single readings can be large or run the other way.
Pick from True (active), False (inactive) when you respond.

Lab log entry: `COc1cccc2c1C(=O)c1c(O)c3c(c(O)c1C2=O)C[C@@](O)(C(=O)CO)C[C@H]3O[C@H]1C[C@H](N)[C@H](O)[C@H](C)O1` — outcome as called in the assay? True

Lab log entry: CC(=O)c1cnc2ccc(-c3cc(Cl)c(O)c(Cl)c3)nc2c1NC1CCC(CN(C)C)CC1 (stereo unspecified) — outcome as called in the assay? True

Lab log entry: `Cc1cc(NC(=O)Nc2ccc(N(C)C)cc2)c2cc(F)cc(F)c2n1` — outcome as called in the assay? False

Lab log entry: `Cc1ccc(Nc2cc(-c3cccc(N4C(=O)c5ccccc5C4=O)c3)ncn2)cc1NS(C)(=O)=O` — outcome as called in the assay? False

Continuing:
Lab log entry: `Nc1nc(Cl)nc2c1ncn2[C@H]1C[C@H](O)[C@@H](CO)O1` — outcome as called in the assay? True

Lab log entry: `Cc1cn[nH]c1` — outcome as called in the assay? True

Lab log entry: `Cc1c(O)cccc1C(=O)N[C@@H](CSc1ccccc1)[C@H](O)CN1C[C@H]2CCCC[C@@H]2C[C@@H]1C(=O)NC(C)(C)C` — outcome as called in the assay? False

Lab log entry: `CC(C)C[C@H](NC(=O)[C@H](Cc1ccccc1)NC(=O)c1cnccn1)B(O)O` — outcome as called in the assay? True

Lab log entry: `COc1cc2nc(N3CCCN(C)CC3)nc(NC3CCN(Cc4ccccc4)CC3)c2cc1OC` — outcome as called in the assay? True

Lab log entry: `CCN(CC)CCOc1ccc(Cc2ccccc2)cc1` — outcome as called in the assay? True

Lab log entry: `Cc1ccc2c(c1)c1c(n2CCc2ccc(C)nc2)CCN(C)C1` — outcome as called in the assay? False

Lab log entry: `CC(=O)Nc1sc2c(c1-c1nc3ccccc3s1)CNC2` — outcome as called in the assay? False

Lab log entry: O=C1CCC(N2C(=O)c3ccccc3C2=O)C(=O)N1 (stereo unspecified) — outcome as called in the assay? False

Lab log entry: `CCOC(=O)C1=C(O)C(=O)N(Cc2ccccc2)C1` — outcome as called in the assay? False

Lab log entry: `Cc1[nH]c(=O)c(C#N)cc1-c1ccc2nccn2c1` — outcome as called in the assay? False

Lab log entry: `C[C@](N)(Cc1ccc(O)c(O)c1)C(=O)O` — outcome as called in the assay? False

Lab log entry: `COc1ccc(-n2c(C)c([N+](=O)[O-])c3ccc(O)cc32)cc1` — outcome as called in the assay? False

Lab log entry: C[C@]12CC[C@@H]3c4ccc(O)cc4C[C@@H](CCCCCCCCCS(=O)CCCC(F)(F)C(F)(F)F)[C@H]3[C@H]1CC[C@H]2O (stereo partly specified) — outcome as called in the assay? False

Lab log entry: CC(Cc1ccc(O)c(O)c1)(NN)C(=O)O (stereo unspecified) — outcome as called in the assay? False

Lab log entry: `CN(C)CC=CC(=O)Nc1cc2c(Nc3ccc(F)c(Cl)c3)ncnc2cc1O[C@H]1CCOC1` — outcome as called in the assay? True

Lab log entry: `CCn1c(-c2nonc2N)nc2cnc(Oc3cccc(NC(=O)c4ccc(OCCN5CCOCC5)cc4)c3)cc21` — outcome as called in the assay? False

* * *

Method Notes: Quantitative highthroughput screen to assess conditional lethalithy of SEM cells grown in RPMI1640 with dialyzed fetal bovine serum (RPMI+ds) (AID 1963884); note: nearly all actives have a fitted effect of over 35% in size;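 for viability: 100% = DMSO control wells and 0% = empty wells without cells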
Condition Label: SEM B-ALL cells, RPMI+dialyzed FBS, CellTiter-Glo viability, 48 h; series mostly up to 45.8 µM
Inconclusive results are not listed. The source made the active and inactive calls. Calls come from the whole dose curve; as a rule, active = well fitted cell-killing curve with a large enough effect; inconclusive = small, poorly fitted or top-dose-only effect, or effect the other way; inactive = no such curve, though single readings can be large or run the other way. Bridge positions count the residues as written; N and C are the ends. Square brackets hold non-standard residues; d marks the D form. Peptide text beside a SMILES is read from it. * marks the point of attachment. ξ: configuration not given here. Octanoyl(6-Me) = CCC(C)CCCCC(=O)*; ξThr(3R) = C[C@@H](O)C(N)C(=O)O; dDab = NCC[C@@H](N)C(=O)O; Dab = NCC[C@H](N)C(=O)O
Pick from t for active, f for inactive when you respond.

Lab log entry: `COc1cccc(Nc2c(C(N)=O)cnc3c(C)cc(S(=O)(=O)c4cccc(C(=O)N(C)C)c4)cc23)c1` — outcome as called in the assay? f

Lab log entry: `CN[C@@H]1[C@@H](O)[C@@H](O[C@@H]2[C@@H](O)[C@H](O[C@H]3O[C@H](CN)[C@@H](O)[C@H](O)[C@@H]3O)[C@@H](N)C[C@@H]2NC(=O)[C@@H](O)CN)OC[C@]1(C)O` — outcome as called in the assay? f

Lab log entry: `N=C(N)c1ccc2cc(OC(=O)c3ccc(N=C(N)N)cc3)ccc2c1` — outcome as called in the assay? f

Lab log entry: `CNCc1ccc(-c2[nH]c3cc(F)cc4c3c2CCNC4=O)cc1` — outcome as called in the assay? f

Lab log entry: CCN1CCCC1CNC(=O)c1cc(S(=O)(=O)CC)c(N)cc1OC (stereo unspecified) — outcome as called in the assay? f

Continuing:
Lab log entry: `NC(=O)OCC(COC(N)=O)c1ccccc1` — outcome as called in the assay? f

Lab log entry: `COc1ccc([C@@H]2CC(=O)c3c(O)cc(O[C@@H]4O[C@H](CO[C@@H]5O[C@@H](C)[C@H](O)[C@@H](O)[C@@H]5O)[C@@H](O)[C@H](O)[C@@H]4O)cc3O2)cc1O` — outcome as called in the assay? f

Lab log entry: COc1ccc(C2(C#N)CCC(C(=O)O)CC2)cc1OC1CCCC1 (stereo unspecified) — outcome as called in the assay? f

Lab log entry: `O=C(NCCS(=O)(=O)c1ccc(C(F)(F)F)cn1)c1ccc(Cl)cc1` — outcome as called in the assay? f

Lab log entry: `CN1CCN(c2ccc(C(=O)Nc3n[nH]c4ccc(Cc5cc(F)cc(F)c5)cc34)c(NC3CCOCC3)c2)CC1` — outcome as called in the assay? t

Lab log entry: `CC[C@@]1(O)C(=O)OCc2c1cc1n(c2=O)Cc2cc3cc(O)ccc3nc2-1` — outcome as called in the assay? t

Lab log entry: CN1C2CCC1CC(OC(=O)C(CO)c1ccccc1)C2 (stereo unspecified) — outcome as called in the assay? f

Lab log entry: `NS(=O)(=O)NCCNc1nonc1C(=Nc1ccc(F)c(Br)c1)NO` — outcome as called in the assay? t

Lab log entry: `O=C(NC1CCOCC1)c1ccc(-c2cc(-c3cn[nH]c3-c3ccccn3)ccn2)cc1` — outcome as called in the assay? f

Lab log entry: CCC(C)CCCCC(=O)N[C@@H](CCN)C(=O)NC(C(=O)N[C@H](CCN)C(=O)N[C@@H]1CCNC(=O)C([C@@H](C)O)NC(=O)[C@@H](CCN)NC(=O)[C@@H](CCN)NC(=O)[C@@H](CC(C)C)NC(=O)[C@H](Cc2ccccc2)NC(=O)[C@H](CCN)NC1=O)[C@@H](C)O (stereo partly drawn) ({Octanoyl(6-Me)}-[Dab][ξThr(3R)][dDab][dDab][Dab]F[dL][dDab][dDab][ξThr(3R)]; lactam 4-C) — outcome as called in the assay? f

Lab log entry: `COc1ccc(-c2coc3cc(O)cc(O)c3c2=O)cc1` — outcome as called in the assay? f

Source: PubChem BioAssay (NCATS)
